What % Control value of the RLU value (ATP measurement) was measured for each of the following?
- Tested on: human cervical cancer cell line HeLa
- assay.details: Comparison with single layer culture method using agent for inducing apoptosis
- Format: cell-based
- test.parameters: agent 1 µM; deacylated gellan gum addition group (0.015%); day 4
Starred links: 1 amine or outer side, 2 acyl side, 3 side chain; linkers in the order of their positions; H or OH if unused. Positions of bridges follow the written chain, without caps; N, C: chain ends. Non-standard residues stand in square brackets, D forms with d. Residues, ends and D or L forms follow the SMILES beside them. Chains are numbered I, II in the order given. Actinocin(9to1) = Cc1c2oc3c(C)ccc(C(=O)[*:1])c3nc-2c(C(=O)[*:2])c(N)c1=O; NMeV = CN[C@H](C(=O)O)C(C)C; Sar = CNCC(=O)O
Write the answer as a number in % Control, unit excluded.

Q. Record COc1cc([C@@H]2c3cc4c(cc3[C@@H](O[C@@H]3O[C@@H]5CO[C@@H](C)O[C@H]5[C@H](O)[C@H]3O)[C@H]3COC(=O)[C@H]23)OCO4)cc(OC)c1O [Etoposide] : what is its % Control value of the RLU value (ATP measurement) with human cervical cancer cell line HeLa?
A. 35

Q. Record Cc1c2oc3c(C)ccc(C(=O)N[C@@H]4C(=O)N[C@H](C(C)C)C(=O)N5CCC[C@H]5C(=O)N(C)CC(=O)N(C)[C@@H](C(C)C)C(=O)O[C@@H]4C)c3nc-2c(C(=O)N[C@@H]2C(=O)N[C@H](C(C)C)C(=O)N3CCC[C@H]3C(=O)N(C)CC(=O)N(C)[C@@H](C(C)C)C(=O)O[C@@H]2C)c(N)c1=O [Actinomycin D] (I: T[dV]P[Sar][NMeV] / II: T[dV]P[Sar][NMeV]; ester I:1-I:C, II:1-II:C; linker I:N-II:N via Actinocin(9to1)) : what is its % Control value of the RLU value (ATP measurement) with human cervical cancer cell line HeLa?
A. 4

Q. Record COc1cccc2c1C(=O)c1c(O)c3c(c(O)c1C2=O)C[C@@](O)(C(=O)CO)C[C@@H]3O[C@H]1C[C@H](N)[C@H](O)[C@H](C)O1 [Adriamycin] : what is its % Control value of the RLU value (ATP measurement) with human cervical cancer cell line HeLa?
A. 5

Q. Record C[C@@H]1C[C@H]2[C@@H]3CCC4=CC(=O)C=C[C@]4(C)[C@@]3(F)[C@@H](O)C[C@]2(C)[C@@]1(O)C(=O)CO [Dexamethasone] : what is its % Control value of the RLU value (ATP measurement) with human cervical cancer cell line HeLa?
A. 232
